The entries below are paired with their reported pEC50.
Target: Bombyx mori EcR (VP16 fusion, CVBE switch construct) (Bombyx mori, UniProt P49881)
Sequence (P49881 86-606): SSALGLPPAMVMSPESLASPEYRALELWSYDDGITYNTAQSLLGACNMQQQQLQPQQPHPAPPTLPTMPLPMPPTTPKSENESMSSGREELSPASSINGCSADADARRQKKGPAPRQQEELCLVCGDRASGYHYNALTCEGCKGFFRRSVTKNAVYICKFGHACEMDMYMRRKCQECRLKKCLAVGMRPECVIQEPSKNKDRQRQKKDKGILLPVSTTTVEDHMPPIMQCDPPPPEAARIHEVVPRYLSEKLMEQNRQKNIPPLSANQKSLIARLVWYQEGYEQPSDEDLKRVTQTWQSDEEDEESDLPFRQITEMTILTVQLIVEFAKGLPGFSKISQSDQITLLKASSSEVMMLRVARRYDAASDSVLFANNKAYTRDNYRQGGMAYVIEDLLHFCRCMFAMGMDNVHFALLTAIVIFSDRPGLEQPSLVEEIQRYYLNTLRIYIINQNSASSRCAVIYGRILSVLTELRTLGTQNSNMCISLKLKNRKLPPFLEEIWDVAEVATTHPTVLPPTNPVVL
Sequence (P19793 whole entry partner, the tested form may be a part): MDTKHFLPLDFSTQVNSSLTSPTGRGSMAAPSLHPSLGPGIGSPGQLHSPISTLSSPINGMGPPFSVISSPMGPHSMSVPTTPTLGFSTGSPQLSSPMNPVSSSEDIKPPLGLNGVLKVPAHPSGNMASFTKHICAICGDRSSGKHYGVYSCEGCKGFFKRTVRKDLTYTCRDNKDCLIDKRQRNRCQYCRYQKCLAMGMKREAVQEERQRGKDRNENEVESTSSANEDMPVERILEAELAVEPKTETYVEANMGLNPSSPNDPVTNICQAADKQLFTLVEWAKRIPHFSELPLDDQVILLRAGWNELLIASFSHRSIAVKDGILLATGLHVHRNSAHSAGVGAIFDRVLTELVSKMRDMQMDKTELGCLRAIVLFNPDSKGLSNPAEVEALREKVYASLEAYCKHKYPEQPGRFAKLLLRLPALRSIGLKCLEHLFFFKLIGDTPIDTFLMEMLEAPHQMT
Experiment: Z3 Assay (HEK-293 cells with CVBE and 6XEcRE LacZ, β-galactosidase reporter)
Conditions: read-out: Z3 assay EC50; HEK-293 Z3 cells, β-galactosidase reporter; average of two wells
Experimental: Dr. F. Gage provided a population of stably transformed cells containing CVBE and 6XEcRE as described in Suhr, S. T., Gil, E. B., Senut M. C., Gage, F. H. (1998) Proc. Natl. Acad. Sci. USA 95, 7999-804. […] Dilution cloning was used to isolate individual clones. […] Individual clones were evaluated based on their response in the presence and absence of test ligands. […]
The read-out pEC50 is expressed as -log10 of concentration in moles per litre.

Some solved cases for reference:
- CCc1ccc(C(=O)NN(C(=O)c2cc(F)ccc2[N+](=O)[O-])C(C)(C)C)c(F)c1: 6.16
- CCc1ccc(C(=O)NN(C(=O)c2cccc(OC)c2)C(C)(C)C)c(F)c1: 6.36

Could you share which pEC50 value was measured for `CCc1c(OC)cccc1C(=O)NN(C(=O)c1cc(Cl)ccc1[N+](=O)[O-])C(C)(C)C` ? 6.69

Item: `CCc1c(OC)cccc1C(=O)NN(C(=O)c1cccc(Br)c1)C(C)(C)C` 6.26

Item: CCCC(N(NC(=O)c1cccc(OC)c1C)C(=O)c1cc(C)cc(C)c1)C(C)(C)C (centres unmarked) 7.70

Item: `COc1cc(F)ccc1C(=O)N(NC(=O)c1cccc(OC)c1C)C(C)(C)C` 6.58

Item: `CC(=O)c1cccc(C(=O)NN(C(=O)c2cc(C)cc(C)c2)C(C)(C)C)c1C` 5.94

Item: `CCc1cccc(C(=O)NN(C(=O)c2cc(C)cc(C)c2)C(C)(C)C)c1C` 6.76
